- ASSAYED_SYSTEM: human Werner helicase (WRN-BV08, Uniprot Q14191, amino acids 517-1235 with L1074F point mutation) (Homo sapiens, UniProt Q14191, L1074F)
- Construct: Uniprot Q14191, amino acids 517-1235 with L1074F point mutation; TEV-cleavable 8×His (C, cleaved yes); made in house; host or cells: Sf9 insect cells (baculovirus)
- Sequence (Q14191 with tags, fused parts or gaps L1074F limits assumed): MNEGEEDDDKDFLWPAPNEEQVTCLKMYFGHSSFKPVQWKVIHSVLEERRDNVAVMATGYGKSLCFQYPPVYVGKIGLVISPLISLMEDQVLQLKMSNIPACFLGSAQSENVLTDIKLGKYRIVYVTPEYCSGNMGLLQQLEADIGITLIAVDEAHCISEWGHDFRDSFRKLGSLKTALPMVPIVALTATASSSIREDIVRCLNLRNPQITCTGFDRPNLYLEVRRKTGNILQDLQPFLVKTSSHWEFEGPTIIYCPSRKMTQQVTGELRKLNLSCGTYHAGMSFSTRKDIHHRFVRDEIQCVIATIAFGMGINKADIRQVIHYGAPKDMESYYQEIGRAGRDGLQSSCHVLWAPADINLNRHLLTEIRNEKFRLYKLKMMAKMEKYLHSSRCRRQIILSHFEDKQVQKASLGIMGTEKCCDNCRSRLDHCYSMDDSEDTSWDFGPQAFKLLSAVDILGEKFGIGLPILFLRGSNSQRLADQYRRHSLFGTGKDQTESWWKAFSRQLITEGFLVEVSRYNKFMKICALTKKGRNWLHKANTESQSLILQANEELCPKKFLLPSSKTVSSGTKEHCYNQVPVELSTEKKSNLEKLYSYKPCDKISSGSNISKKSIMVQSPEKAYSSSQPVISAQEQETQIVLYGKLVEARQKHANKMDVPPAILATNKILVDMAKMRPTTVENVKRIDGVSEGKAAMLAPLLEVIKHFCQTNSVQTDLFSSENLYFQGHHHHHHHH
- TEST_DESCRIPTION: WRN (BV08) ADP-Glo Assay
- Type: biochemical
- REPORTED_CONDITIONS: 0.15 nM WRN, 5 μM ATP, 0.1 nM DNA duplex, 15 min preincubation, 60 min at 25° C., pH 7.5, 1% DMSO; read-out: ADP-Glo_hWRN_IC50
READOUT_TYPE: IC50

Would you please look over these solved cases?
MOLECULE: O=C(C1Cc2cc(-n3cccc3)ccc2O1)N(Cc1ccncc1)C1C=CS(=O)(=O)C1 (stereo not shown)
IC50: 5 to 10 µM
--
MOLECULE: COc1cc(CN(C(=O)C(C)n2cc(-c3ccc(F)cc3)cn2)[C@@H]2C=CS(=O)(=O)C2)ccn1 (stereo partly shown)
IC50: 0.5 to 5 µM
--
MOLECULE: O=C(Cc1ccc(-n2cccc2)cc1)N(Cc1ccnc(C(F)F)c1)C1C=CS(=O)(=O)C1 (stereo not shown)
IC50: 0.5 to 5 µM
--
MOLECULE: Cc1cccn1-c1ccc(CC(=O)N(Cc2ccnc(CC(C)(C)O)c2)C2C=CS(=O)(=O)C2)c(F)c1 (stereo not shown)
IC50: 0.5 to 5 µM
--
MOLECULE: COc1cc(CN(C(=O)Cc2ccc(-c3ccc(F)cc3)cc2)C2C=CS(=O)(=O)C2)on1 (stereo not shown)
IC50: 5 to 10 µM

GET /values?readout=IC50&item= O=C(Cc1ccc2oc3ccccc3c2c1)N(Cc1ccncc1)C1C=CS(=O)(=O)C1 (stereo not shown)
> 50 µM

// query IC50 value for entry O=C(Cc1ccc(C2CC2(F)F)cc1)N(Cc1ccncc1)C1C=CS(=O)(=O)C1 (stereo not shown)
5 to 10 µM

Data origin: patent US20260297070A1
